targetSystem: SARS-COV-2 RBD-MMH (SARS-COV-2 RBD extracellular domain with C-terminal myc-myc-hexahistidine tag) (SARS-CoV-2)
testMethodNotes: SPR 37C, mAb captured, pH 7.4 vs pH 6.0
In plain terms, low t½ Ratio of pH 7.4 to pH 6.0, meaning strictly below 1, gives 1, and everything else gives -1.

[[record]]
binder = "mAb14247 (antibody, V domains shown) VH: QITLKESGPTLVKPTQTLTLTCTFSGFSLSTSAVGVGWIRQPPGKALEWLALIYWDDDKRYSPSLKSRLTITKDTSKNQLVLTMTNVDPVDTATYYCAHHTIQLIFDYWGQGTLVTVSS VL: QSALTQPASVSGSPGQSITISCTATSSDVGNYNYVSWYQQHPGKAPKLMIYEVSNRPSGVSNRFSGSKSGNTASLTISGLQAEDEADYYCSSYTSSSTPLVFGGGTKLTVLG"
labelvalue = -1

[[record]]
binder = "mAb15170 (antibody, V domains shown) VH: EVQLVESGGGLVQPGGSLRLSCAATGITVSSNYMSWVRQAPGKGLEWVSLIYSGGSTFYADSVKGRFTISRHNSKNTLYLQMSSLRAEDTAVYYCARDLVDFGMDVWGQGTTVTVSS VL: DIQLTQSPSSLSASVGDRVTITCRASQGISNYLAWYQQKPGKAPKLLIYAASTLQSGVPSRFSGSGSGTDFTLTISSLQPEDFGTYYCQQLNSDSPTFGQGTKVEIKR"
labelvalue = 1

[[record]]
binder = "mAb15160 (antibody, V domains shown) VH: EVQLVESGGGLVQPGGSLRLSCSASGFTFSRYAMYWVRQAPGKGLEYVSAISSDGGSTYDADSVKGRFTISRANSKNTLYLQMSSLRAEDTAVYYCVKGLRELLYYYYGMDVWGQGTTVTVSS VL: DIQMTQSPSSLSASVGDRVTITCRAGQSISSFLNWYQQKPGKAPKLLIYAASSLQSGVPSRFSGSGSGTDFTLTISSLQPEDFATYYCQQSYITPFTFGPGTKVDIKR"
labelvalue = -1

[[record]]
binder = "mAb14283 (antibody, V domains shown) VH: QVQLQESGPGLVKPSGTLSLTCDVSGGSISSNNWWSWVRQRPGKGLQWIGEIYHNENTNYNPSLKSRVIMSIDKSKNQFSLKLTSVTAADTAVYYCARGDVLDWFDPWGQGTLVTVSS VL: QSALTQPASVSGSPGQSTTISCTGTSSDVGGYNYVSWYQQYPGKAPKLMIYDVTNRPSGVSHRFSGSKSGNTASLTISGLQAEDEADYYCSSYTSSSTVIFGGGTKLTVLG"
labelvalue = -1

[[record]]
binder = "mAb15150 (antibody, V domains shown) VH: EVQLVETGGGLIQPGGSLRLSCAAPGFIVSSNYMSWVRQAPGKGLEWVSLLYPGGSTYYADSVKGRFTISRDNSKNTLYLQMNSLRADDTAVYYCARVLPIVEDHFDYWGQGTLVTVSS VL: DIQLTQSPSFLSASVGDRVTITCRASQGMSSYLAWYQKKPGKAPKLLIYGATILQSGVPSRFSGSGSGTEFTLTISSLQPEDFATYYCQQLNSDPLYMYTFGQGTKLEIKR"
labelvalue = 1


Q) # strict comparison: is reported t½ Ratio of pH 7.4 to pH 6.0 < 1? input = mAb14235 (antibody, V domains shown) VH: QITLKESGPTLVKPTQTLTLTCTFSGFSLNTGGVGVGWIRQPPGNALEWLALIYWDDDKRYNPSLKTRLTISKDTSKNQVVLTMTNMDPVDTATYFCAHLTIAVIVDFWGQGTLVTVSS VL: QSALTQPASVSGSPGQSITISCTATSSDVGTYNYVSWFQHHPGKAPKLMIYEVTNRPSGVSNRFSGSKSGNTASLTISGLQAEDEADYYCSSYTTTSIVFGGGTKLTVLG
A) 1

Q) Now the same for mAb14230 (antibody, V domains shown) VH: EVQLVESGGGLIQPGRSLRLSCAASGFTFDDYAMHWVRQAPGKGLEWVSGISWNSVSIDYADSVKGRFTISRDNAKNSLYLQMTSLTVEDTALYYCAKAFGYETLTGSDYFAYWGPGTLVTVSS VL: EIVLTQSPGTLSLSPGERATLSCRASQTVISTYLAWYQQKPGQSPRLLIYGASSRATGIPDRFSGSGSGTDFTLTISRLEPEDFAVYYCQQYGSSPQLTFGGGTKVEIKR
A) -1
